In this section, each of the molecules is paired with its reported viability, T/C.
# System: 935938-334-R-J1-PDC spheroids with HUVEC/MSC, viability
# test: Anticancer human tumor 935938-334-R-J1-PDC patient-derived small intestine adenocarcinoma cell line growth inhibition [PI3K]
# experimental_context: second compound 10 µM; first compound 0.001 µM; stronger effect = lower value
observed_property: viability, T/C (%)

Cn1ncnc1[C@H]1c2n[nH]c(=O)c3cc(F)cc(c23)N[C@@H]1c1ccc(F)cc1 + CC(Nc1ncnc2nc[nH]c12)c1cc2cccc(Cl)c2c(=O)n1-c1ccccc1; 89
Cn1ncnc1[C@H]1c2n[nH]c(=O)c3cc(F)cc(c23)N[C@@H]1c1ccc(F)cc1 + Cc1nc(NC(=O)N2CCCC2C(N)=O)sc1-c1ccnc(C(C)(C)C(F)(F)F)c1; 38.7
CC(C)n1nc(-c2ccc3oc(N)nc3c2)c2c(N)ncnc21 + Cc1nc(NC(=O)N2CCCC2C(N)=O)sc1-c1ccnc(C(C)(C)C(F)(F)F)c1; 37.7
CC(=O)c1c(C)c2cnc(Nc3ccc(N4CCNCC4)cn3)nc2n(C2CCCC2)c1=O + Cc1nc(NC(=O)N2CCCC2C(N)=O)sc1-c1ccnc(C(C)(C)C(F)(F)F)c1; 40
CC(C)n1nc(-c2ccc3oc(N)nc3c2)c2c(N)ncnc21 + CC(Nc1ncnc2nc[nH]c12)c1cc2cccc(Cl)c2c(=O)n1-c1ccccc1; 94.1
CC(=O)c1c(C)c2cnc(Nc3ccc(N4CCNCC4)cn3)nc2n(C2CCCC2)c1=O + CC(Nc1ncnc2nc[nH]c12)c1cc2cccc(Cl)c2c(=O)n1-c1ccccc1; 83.7

----------
# System: 935938-334-R-J1-PDC spheroids with HUVEC/MSC, viability
# test: Anticancer human tumor 935938-334-R-J1-PDC cell line growth inhibition [PI3K];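 also: compound exposure lasted seven days before viability was read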
# experimental_context: curve of first compound; second compound 0.1 µM
pIC50: −log10 of the molar value.
In this section, each of the compounds is paired with its reported pIC50.
observed_property: pIC50

Cn1ncc(Cl)c1-c1cc(C(=O)NC(CN)Cc2cccc(F)c2)sc1Cl (stereo unspecified) + COc1c(OCCCN2CCOCC2)ccc2c3n(c(=NC(=O)c4cnc(N)nc4)nc12)CCN3; 7.24
Cn1nccc1Nc1nccc(-c2ccn(C(CO)c3ccc(Cl)c(F)c3)c(=O)c2)n1 (stereo unspecified) + Cc1nc(NC(=O)N2CCCC2C(N)=O)sc1-c1ccnc(C(C)(C)C(F)(F)F)c1; 6.01
CC(C)NCC(C(=O)N1CCN(c2ncnc3c2C(C)CC3O)CC1)c1ccc(Cl)cc1 (stereo unspecified) + CC(Nc1ncnc2nc[nH]c12)c1cc2cccc(Cl)c2c(=O)n1-c1ccccc1; 5.47
Cn1cnc2c(F)c(Nc3ccc(Br)cc3Cl)c(C(=O)NOCCO)cc21 + Cc1nc(NC(=O)N2CCCC2C(N)=O)sc1-c1ccnc(C(C)(C)C(F)(F)F)c1; 7.53
CCCS(=O)(=O)Nc1ccc(F)c(C(=O)c2c[nH]c3ncc(-c4ccc(Cl)cc4)cc23)c1F + CC(Nc1ccc2c(c1)OCCn1cc(N3C(=O)OCC3C(F)F)nc1-2)C(N)=O; 5.16

----------
# Tested on: 935938-334-R-J1-PDC spheroids with HUVEC/MSC, viability
# test: Anticancer human tumor 935938-334-R-J1-PDC cell line growth inhibition [PI3K];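 also: compound exposure lasted seven days before viability was read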
# experimental_context: curve of first compound; second compound 10 µM
observed_property: IC50 (nM)

CCN1CCN(Cc2ccc(Nc3ncc(F)c(-c4cc(F)c5nc(C)n(C(C)C)c5c4)n3)nc2)CC1 + CC(Nc1ncnc2nc[nH]c12)c1cc2cccc(Cl)c2c(=O)n1-c1ccccc1; 58.9
C[C@@H](NC(=O)c1ncnc(N)c1Cl)c1ncc(C(=O)Nc2cc(C(F)(F)F)c(Cl)cn2)s1 + Cc1nc(NC(=O)N2CCCC2C(N)=O)sc1-c1ccnc(C(C)(C)C(F)(F)F)c1; 272
CC(C)n1nc(-c2ccc3oc(N)nc3c2)c2c(N)ncnc21 + CC(Nc1ncnc2nc[nH]c12)c1cc2cccc(Cl)c2c(=O)n1-c1ccccc1; 71.6

----------
# System: 935938-334-R-J1-PDC spheroids with HUVEC/MSC, viability
# test: Anticancer human tumor 935938-334-R-J1-PDC cell line growth inhibition [PI3K];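 also: compound exposure lasted seven days before viability was read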;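 as to viability, T/C: percent of vehicle DMSO treated spheroid viability so 100% = untreated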
# experimental_context: second compound 3.16 µM; first compound 3.16 µM; stronger effect = lower value
observed_property: viability, T/C

CC1(C)CCC(CN2CCN(c3ccc(C(=O)NS(=O)(=O)c4ccc(NCC5CCOCC5)c([N+](=O)[O-])c4)c(Oc4cnc5[nH]ccc5c4)c3)CC2)=C(c2ccc(Cl)cc2)C1 + Cc1nc(NC(=O)N2CCCC2C(N)=O)sc1-c1ccnc(C(C)(C)C(F)(F)F)c1; 60%
CC1(C)CCC(Nc2ncc(C(F)(F)F)c(-c3c[nH]c4c(P(C)(C)=O)c(C#N)ccc34)n2)CN1 (stereo unspecified) + CC(Nc1ncnc2nc[nH]c12)c1cc2cccc(Cl)c2c(=O)n1-c1ccccc1; 32.6%
C=CC(=O)N1CCN(c2nc(=O)n(-c3c(C)ccnc3C(C)C)c3nc(-c4c(O)cccc4F)c(F)cc23)C(C)C1 (stereo unspecified) + Cc1nc(NC(=O)N2CCCC2C(N)=O)sc1-c1ccnc(C(C)(C)C(F)(F)F)c1; 64.7%
Cn1ncc(Cl)c1-c1cc(C(=O)NC(CN)Cc2cccc(F)c2)sc1Cl (stereo unspecified) + Cc1nc(NC(=O)N2CCCC2C(N)=O)sc1-c1ccnc(C(C)(C)C(F)(F)F)c1; 27.1%
C[C@@H](NC(=O)c1ncnc(N)c1Cl)c1ncc(C(=O)Nc2cc(C(F)(F)F)c(Cl)cn2)s1 + Cc1nc(NC(=O)N2CCCC2C(N)=O)sc1-c1ccnc(C(C)(C)C(F)(F)F)c1; 61.9%
CC(C)NCC(C(=O)N1CCN(c2ncnc3c2C(C)CC3O)CC1)c1ccc(Cl)cc1 (stereo unspecified) + Cc1nc(NC(=O)N2CCCC2C(N)=O)sc1-c1ccnc(C(C)(C)C(F)(F)F)c1; 39.9%

----------
In this section, each of the compounds is paired with its reported IC50.
# Tested on: 935938-334-R-J1-PDC spheroids with HUVEC/MSC, viability
# test: Anticancer human tumor 935938-334-R-J1-PDC cell line growth inhibition [PI3K];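 also: compound exposure lasted seven days before viability was read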
# experimental_context: curve of first compound; second compound 1 µM
observed_property: IC50 (nM)

CCCS(=O)(=O)Nc1ccc(F)c(C(=O)c2c[nH]c3ncc(-c4ccc(Cl)cc4)cc23)c1F + CC(Nc1ncnc2nc[nH]c12)c1cc2cccc(Cl)c2c(=O)n1-c1ccccc1; 6770
Cn1cnc2c(F)c(Nc3ccc(Br)cc3Cl)c(C(=O)NOCCO)cc21 + CC(Nc1ncnc2nc[nH]c12)c1cc2cccc(Cl)c2c(=O)n1-c1ccccc1; 81.4

----------
# Test system: 935938-334-R-J1-PDC spheroids with HUVEC/MSC, viability
# test: Anticancer human tumor 935938-334-R-J1-PDC cell line growth inhibition [PI3K];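 also: compound exposure lasted seven days before viability was read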;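 as to viability, T/C: percent of vehicle DMSO treated spheroid viability so 100% = untreated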
# experimental_context: second compound 1 µM; first compound 0.000316 µM; stronger effect = lower value
# Source text: Combinatorial screen of targeted agents with the PI3K inhibitors inavolisib, alpelisib, duvelisib, and copanlisib in multi-cell type tumor spheroids A high-throughput screen of multi-cell type tumor spheroids was designed to identify active combinations of targeted small molecules and PI3K pathway inhibitors. […] Compounds. […] If the clinical Cmax for an agent had not been determined, the highest concentration tested was 10 microM. […]
observed_property: viability, T/C (%)

CC(C)n1nc(-c2ccc3oc(N)nc3c2)c2c(N)ncnc21 + CC(Nc1ncnc2nc[nH]c12)c1cc2cccc(Cl)c2c(=O)n1-c1ccccc1; 111
Cn1ncnc1[C@H]1c2n[nH]c(=O)c3cc(F)cc(c23)N[C@@H]1c1ccc(F)cc1 + CC(Nc1ncnc2nc[nH]c12)c1cc2cccc(Cl)c2c(=O)n1-c1ccccc1; 102
CC(C)n1nc(-c2ccc3oc(N)nc3c2)c2c(N)ncnc21 + COc1c(OCCCN2CCOCC2)ccc2c3n(c(=NC(=O)c4cnc(N)nc4)nc12)CCN3; 42.6
CC(=O)c1c(C)c2cnc(Nc3ccc(N4CCNCC4)cn3)nc2n(C2CCCC2)c1=O + CC(Nc1ccc2c(c1)OCCn1cc(N3C(=O)OCC3C(F)F)nc1-2)C(N)=O; 47.9
Cn1ncnc1[C@H]1c2n[nH]c(=O)c3cc(F)cc(c23)N[C@@H]1c1ccc(F)cc1 + COc1c(OCCCN2CCOCC2)ccc2c3n(c(=NC(=O)c4cnc(N)nc4)nc12)CCN3; 33.1
CC(=O)c1c(C)c2cnc(Nc3ccc(N4CCNCC4)cn3)nc2n(C2CCCC2)c1=O + COc1c(OCCCN2CCOCC2)ccc2c3n(c(=NC(=O)c4cnc(N)nc4)nc12)CCN3; 38.4

----------
# Test system: 935938-334-R-J1-PDC spheroids with HUVEC/MSC, viability
# test: Anticancer human tumor 935938-334-R-J1-PDC cell line growth inhibition [PI3K];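 also: compound exposure lasted seven days before viability was read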;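 as to viability, T/C: percent of vehicle DMSO treated spheroid viability so 100% = untreated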
# experimental_context: second compound 0.01 µM; first compound 10 µM; stronger effect = lower value
In this section, each of the compounds is paired with its reported viability, T/C.
observed_property: viability, T/C (%)

CNC(=O)c1ccc(N2C(=S)N(c3ccc(C#N)c(C(F)(F)F)c3)C(=O)C2(C)C)cc1F + CC(Nc1ccc2c(c1)OCCn1cc(N3C(=O)OCC3C(F)F)nc1-2)C(N)=O; 97.6
CC1(C)CCC(Nc2ncc(C(F)(F)F)c(-c3c[nH]c4c(P(C)(C)=O)c(C#N)ccc34)n2)CN1 (stereo not given) + COc1c(OCCCN2CCOCC2)ccc2c3n(c(=NC(=O)c4cnc(N)nc4)nc12)CCN3; 8.72
C#Cc1c(F)ccc2cc(O)cc(-c3ncc4c(N5CC6CCC(C5)N6)nc(OCC56CCCN5CC(F)C6)nc4c3F)c12 (stereo not given) + COc1c(OCCCN2CCOCC2)ccc2c3n(c(=NC(=O)c4cnc(N)nc4)nc12)CCN3; 29.2
CC(Cn1ccc(-c2ccc(C#N)c(Cl)c2)n1)NC(=O)c1cc(C(C)O)[nH]n1 (stereo not given) + COc1c(OCCCN2CCOCC2)ccc2c3n(c(=NC(=O)c4cnc(N)nc4)nc12)CCN3; 78.7
CNC(=O)c1ccc(N2C(=S)N(c3ccc(C#N)c(C(F)(F)F)c3)C(=O)C2(C)C)cc1F + COc1c(OCCCN2CCOCC2)ccc2c3n(c(=NC(=O)c4cnc(N)nc4)nc12)CCN3; 92.7
